Experiment: Rat in vivo pharmacokinetic studies
Parameters: species or system Sprague Dawley rats
Conditions: Sprague-Dawley, plasma, po, 10 mg/kg
reported endpoint: bioavailability (%)

smiles entry: CCc1nc(N)cc(C)c1-c1ccc2c(c1)N(CCNC(C)=O)C(=O)C(C)(C)O2
reported endpoint: bioavailability
readout value: 58
--
smiles entry: CCc1nc(N)cc(C)c1-c1ccc(F)c2c(C)c(CCOC)[nH]c12
reported endpoint: bioavailability
readout value: 20
--
smiles entry: CCc1nc(N)cc(OC)c1-c1ccc2c(c1)N(CCNC(C)=O)C(=O)C(C)(C)O2
reported endpoint: bioavailability
readout value: 39

---

Molecular target: human renin (Homo sapiens)
Sequence (P00797 67-406): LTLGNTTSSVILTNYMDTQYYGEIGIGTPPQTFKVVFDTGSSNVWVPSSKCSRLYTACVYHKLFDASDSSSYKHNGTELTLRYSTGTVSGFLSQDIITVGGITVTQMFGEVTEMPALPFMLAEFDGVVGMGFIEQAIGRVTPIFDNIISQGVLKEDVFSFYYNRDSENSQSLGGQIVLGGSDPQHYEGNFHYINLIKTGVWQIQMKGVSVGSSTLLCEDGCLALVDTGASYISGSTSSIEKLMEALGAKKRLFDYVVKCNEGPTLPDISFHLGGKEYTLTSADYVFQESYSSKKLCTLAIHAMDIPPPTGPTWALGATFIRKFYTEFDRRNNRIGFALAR
Conditions: Table 3
reported endpoint: Ligand Efficiency

molecule: CCc1nc(N)nc(N)c1-c1ccc2c(c1)N(CCCOC)CCC2 [Compound 6c, reference compound]
target under test: human renin (Homo sapiens)
readout value: 0.34
--
molecule: COCCCN1CCCc2ccc(-c3c(C)cc(N)nc3C)cc21
target under test: human renin (Homo sapiens)
readout value: 0.27
--
molecule: CCc1nc(N)cc(C)c1-c1ccc2c(c1)N(CCCOC)CCC2
target under test: human renin (Homo sapiens)
readout value: 0.34
--
molecule: CCc1nc(N)cc(OC)c1-c1ccc2c(c1)N(CCCOC)CCC2
target under test: human renin (Homo sapiens)
readout value: 0.33

Source of measurements: paper PMC5553068
